The following molecules are shown together with reported herbicidal activity VIOTR values.
Test system: Viola tricolor
Test: Post-emergence herbicidal activity, greenhouse pot test
Type: in vivo
Conditions: one-leaf stage, 80 g/ha, scored visually after approx. 3 weeks, 100% = plants have died, 0% = like control
All answers are understood in %, so give the number only.

Examples from the recorded data:
- MOLECULE: "COc1cc(C)nc(NC(=O)NS(=O)(=O)c2ccccc2OC(C)C(F)(F)F)n1 (centres unmarked) [Compound I-2]"
  RECORDED VALUE: 90
- MOLECULE: "COc1nc(C)nc(NC(=O)NS(=O)(=O)c2ccccc2OC(C)C(F)(F)F)n1 (centres unmarked) [Compound I-5]"
  RECORDED VALUE: 90
- MOLECULE: "COc1cc(OC)nc(NC(=O)NS(=O)(=O)c2ccccc2OC(C)C(F)(F)F)n1 (centres unmarked) [Compound I-4]"
  RECORDED VALUE: 90

Problem: For the molecule shown here, COc1nc(NC(=O)NS(=O)(=O)c2ccccc2OC(C)C(F)(F)F)nc(OC)n1 (centres unmarked) [Compound I-6] , give the reported herbicidal activity VIOTR.
Result: 90

Problem: For the molecule shown here, COc1cc(Cl)nc(NC(=O)NS(=O)(=O)c2ccccc2OC(C)C(F)(F)F)n1 (centres unmarked) [Compound I-3] , give the reported herbicidal activity VIOTR.
Result: 80

###

Test system: Polygonum convolvulus
Experiment: Post-emergence herbicidal activity, greenhouse pot test
Assay type: in vivo
Details: one-leaf stage, 80 g/ha, scored visually after approx. 3 weeks, 100% = plants have died, 0% = like control
MEASUREMENT KIND: herbicidal activity POLCO (%)
All answers are understood in %, so give the number only.

Examples from the recorded data:
- COMPOUND: "COc1cc(OC)nc(NC(=O)NS(=O)(=O)c2ccccc2OC(C)C(F)(F)F)n1 (stereo not drawn) [Compound I-4]"
  ASSAY SYSTEM: "Polygonum convolvulus"
  MEASUREMENT KIND: "herbicidal activity POLCO"
  UNIT LABEL: "%"
  RECORDED VALUE: 80
- COMPOUND: "Cc1cc(C)nc(NC(=O)NS(=O)(=O)c2ccccc2OC(C)C(F)(F)F)n1 (stereo not drawn) [Compound I-1]"
  ASSAY SYSTEM: "Polygonum convolvulus"
  MEASUREMENT KIND: "herbicidal activity POLCO"
  UNIT LABEL: "%"
  RECORDED VALUE: 90
- COMPOUND: "COc1nc(NC(=O)NS(=O)(=O)c2ccccc2OC(C)C(F)(F)F)nc(OC)n1 (stereo not drawn) [Compound I-6]"
  ASSAY SYSTEM: "Polygonum convolvulus"
  MEASUREMENT KIND: "herbicidal activity POLCO"
  UNIT LABEL: "%"
  RECORDED VALUE: 90
- COMPOUND: "COc1cc(C)nc(NC(=O)NS(=O)(=O)c2ccccc2OC(C)C(F)(F)F)n1 (stereo not drawn) [Compound I-2]"
  ASSAY SYSTEM: "Polygonum convolvulus"
  MEASUREMENT KIND: "herbicidal activity POLCO"
  UNIT LABEL: "%"
  RECORDED VALUE: 90
- COMPOUND: "COc1cc(Cl)nc(NC(=O)NS(=O)(=O)c2ccccc2OC(C)C(F)(F)F)n1 (stereo not drawn) [Compound I-3]"
  ASSAY SYSTEM: "Polygonum convolvulus"
  MEASUREMENT KIND: "herbicidal activity POLCO"
  UNIT LABEL: "%"
  RECORDED VALUE: 80

Then this compound:
Problem: For the compound shown here, COc1nc(C)nc(NC(=O)NS(=O)(=O)c2ccccc2OC(C)C(F)(F)F)n1 (stereo not drawn) [Compound I-5] , give the reported herbicidal activity POLCO.
Result: 90

###

Tested on: Alopecurus myosuroides
Experiment: Post-emergence herbicidal activity, greenhouse pot test
Assay type: in vivo
Conditions: one-leaf stage, 80 g/ha, scored visually after approx. 3 weeks, 100% = plants have died, 0% = like control
The following compounds are shown together with reported herbicidal activity ALOMY values.
Don't forget the unit after the value.

- COMPOUND: "Cc1cc(C)nc(NC(=O)NS(=O)(=O)c2ccccc2OC(C)C(F)(F)F)n1 (centres unmarked)"
  ASSAY SYSTEM: "Alopecurus myosuroides"
  RECORDED VALUE: "90%"
- COMPOUND: "COc1nc(C)nc(NC(=O)NS(=O)(=O)c2ccccc2OC(C)C(F)(F)F)n1 (centres unmarked)"
  ASSAY SYSTEM: "Alopecurus myosuroides"
  RECORDED VALUE: "90%"
- COMPOUND: "COc1cc(C)nc(NC(=O)NS(=O)(=O)c2ccccc2OC(C)C(F)(F)F)n1 (centres unmarked)"
  ASSAY SYSTEM: "Alopecurus myosuroides"
  RECORDED VALUE: "90%"

Problem: Hello, I am looking for reported herbicidal activity ALOMY with Alopecurus myosuroides for COc1cc(Cl)nc(NC(=O)NS(=O)(=O)c2ccccc2OC(C)C(F)(F)F)n1 (centres unmarked) . Could you help?
Result: 80%

Problem: Hello, I am looking for reported herbicidal activity ALOMY with Alopecurus myosuroides for COc1cc(OC)nc(NC(=O)NS(=O)(=O)c2ccccc2OC(C)C(F)(F)F)n1 (centres unmarked) . Could you help?
Result: 90%

###

The following compounds are shown together with reported herbicidal activity PHBPU values.
Tested on: Pharbitis purpurea
Test: Post-emergence herbicidal activity, greenhouse pot test
Type: in vivo, Pharbitis (Ipomoea) purpurea
Details: one-leaf stage, 80 g/ha, scored visually after approx. 3 weeks, 100% = plants have died, 0% = like control
All answers are understood in %, so give the number only.

Problem: For the compound shown here, COc1nc(C)nc(NC(=O)NS(=O)(=O)c2ccccc2OC(C)C(F)(F)F)n1 (centres unmarked) , give the reported herbicidal activity PHBPU.
Result: 90

Problem: For the compound shown here, COc1cc(Cl)nc(NC(=O)NS(=O)(=O)c2ccccc2OC(C)C(F)(F)F)n1 (centres unmarked) , give the reported herbicidal activity PHBPU.
Result: 90

Problem: For the compound shown here, COc1nc(NC(=O)NS(=O)(=O)c2ccccc2OC(C)C(F)(F)F)nc(OC)n1 (centres unmarked) , give the reported herbicidal activity PHBPU.
Result: 90

Problem: For the compound shown here, COc1cc(OC)nc(NC(=O)NS(=O)(=O)c2ccccc2OC(C)C(F)(F)F)n1 (centres unmarked) , give the reported herbicidal activity PHBPU.
Result: 80

Problem: For the compound shown here, COc1cc(C)nc(NC(=O)NS(=O)(=O)c2ccccc2OC(C)C(F)(F)F)n1 (centres unmarked) , give the reported herbicidal activity PHBPU.
Result: 80

###

Test system: Lolium multiflorum
Assay: Pre-emergence herbicidal activity, greenhouse pot test
Assay type: in vivo
Conditions: 80 g/ha, scored visually after approx. 3 weeks, 100% = plants have died, 0% = like control
MEASUREMENT KIND: herbicidal activity LOLMU (%)
All answers are understood in %, so give the number only.

Examples from the recorded data:
- COMPOUND: "COc1cc(Cl)nc(NC(=O)NS(=O)(=O)c2ccccc2OC(C)C(F)(F)F)n1 (stereo not shown)"
  ASSAY SYSTEM: "Lolium multiflorum"
  herbicidal activity LOLMU [%]: 80
- COMPOUND: "COc1cc(OC)nc(NC(=O)NS(=O)(=O)c2ccccc2OC(C)C(F)(F)F)n1 (stereo not shown)"
  ASSAY SYSTEM: "Lolium multiflorum"
  herbicidal activity LOLMU [%]: 80
- COMPOUND: "COc1cc(C)nc(NC(=O)NS(=O)(=O)c2ccccc2OC(C)C(F)(F)F)n1 (stereo not shown)"
  ASSAY SYSTEM: "Lolium multiflorum"
  herbicidal activity LOLMU [%]: 90

Problem: For the compound shown here, Cc1cc(C)nc(NC(=O)NS(=O)(=O)c2ccccc2OC(C)C(F)(F)F)n1 (stereo not shown) , give the reported herbicidal activity LOLMU.
Result: 80

###

The following compounds are shown together with reported herbicidal activity CYPES values.
Tested on: Cyperus esculentus
Test: Pre-emergence herbicidal activity, greenhouse pot test
Format: in vivo
Conditions: 80 g/ha, scored visually after approx. 3 weeks, 100% = plants have died, 0% = like control
All answers are understood in %, so give the number only.

Examples from the recorded data:
- COMPOUND: "COc1cc(Cl)nc(NC(=O)NS(=O)(=O)c2ccccc2OC(C)C(F)(F)F)n1 (stereo not shown) [Compound I-3]"
  ASSAY SYSTEM: "Cyperus esculentus"
  herbicidal activity CYPES / %: 100
- COMPOUND: "COc1nc(NC(=O)NS(=O)(=O)c2ccccc2OC(C)C(F)(F)F)nc(OC)n1 (stereo not shown) [Compound I-6]"
  ASSAY SYSTEM: "Cyperus esculentus"
  herbicidal activity CYPES / %: 100
- COMPOUND: "COc1cc(C)nc(NC(=O)NS(=O)(=O)c2ccccc2OC(C)C(F)(F)F)n1 (stereo not shown) [Compound I-2]"
  ASSAY SYSTEM: "Cyperus esculentus"
  herbicidal activity CYPES / %: 100

Then this compound:
Problem: For the compound shown here, COc1cc(OC)nc(NC(=O)NS(=O)(=O)c2ccccc2OC(C)C(F)(F)F)n1 (stereo not shown) [Compound I-4] , give the reported herbicidal activity CYPES.
Result: 90
